Target: vvZαE3L (UniProt P21605)
Assay: MST; 20 mM NaCl; text says 20 uM; MST at 22 C, 5 nM labeled DNA, 0.5 mg/ml BSA, 0.05% Tween 20; 5 mM HEPES pH 7.5, 20 mM NaCl (Table 2); 20 mM HEPES pH 8.0, 100 mM NaCl (Table 4); 20 mM Tris-HCl pH 7.8, 150 mM KCl (Table 5)
Conditions: protein: recombinant; label: 5'-Alexa647 on strand 1; blunt
readout: Kd (µM)
Numbers only, in µM.

The measured Kd associated with B-DNA 21 bp (dsDNA) DNA 1: TATGCAATCGTAATAAACCGT DNA 2: ACGGTTTATTACGATTGCATA reads 21
